The measurements presented in this section are drawn from ChEMBL document CHEMBL4402565.

Experiment: Cytotoxicity against human HuH7 cells expressing T7 RNA polymerase assessed as reduction in cell viability incubated for 2 days by non-radioactive cell proliferation assay
Format: cell-based, Huh-7
parameter: CC50 at 48 h (µM)

| smiles.repr | parameter | reading.unit | result.operator | measured.number |
| --- | --- | --- | --- | --- |
| O=C(/C=C/c1ccccc1)N[C@@H](Cc1ccccc1)C(=O)N[C@@H](C[C@@H]1CCNC1=O)C(=O)C(=O)NCc1ccccc1 | CC50 at 48 h | µM | > | 265 |
| CC(C)C[C@H](NC(=O)/C=C/c1ccccc1)C(=O)N[C@@H](C[C@@H]1CCNC1=O)C(=O)C(=O)NCc1ccccc1 | CC50 at 48 h | µM | > | 188 |
| O=C(/C=C/c1ccccc1)N[C@@H](CC1CCC1)C(=O)N[C@@H](C[C@@H]1CCNC1=O)C(=O)C(=O)NCc1ccccc1 | CC50 at 48 h | µM | = | 124 |
| O=C(/C=C/c1ccccc1)N[C@@H](CC1CC1)C(=O)N[C@@H](C[C@@H]1CCNC1=O)C(=O)C(=O)NCc1ccccc1 | CC50 at 48 h | µM | > | 189 |
| O=C(/C=C/c1ccccc1)N[C@@H](CC1CCCC1)C(=O)N[C@@H](C[C@@H]1CCNC1=O)C(=O)C(=O)NCc1ccccc1 | CC50 at 48 h | µM | = | 47.5 |
| O=C(/C=C/c1ccccc1)N[C@@H](CC1CCCCC1)C(=O)N[C@@H](C[C@@H]1CCNC1=O)C(=O)C(=O)NCc1ccccc1 | CC50 at 48 h | µM | = | 43 |
